Catalogue of kon values
Biological target: T1, human β-amyloid 1-40 (human, UniProt P05067 672-711)
T1 construct: domain: β-amyloid (1-40); Used in solution over captured antibody (Biacore) or coated on ELISA plates; also called human Aβ peptide (1-40); Aβ peptide (1-40)
T1 sequence (P05067 672-711 limits assumed): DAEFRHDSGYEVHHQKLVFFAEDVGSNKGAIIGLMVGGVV
Assay: SPR Biacore 3000; mAb captured on anti-mouse IgG, Aβ 1-40 at 4-500 nM
Lab book: enter the figure in M⁻¹ s⁻¹, no units written.

6F6 murine monoclonal antibody (antibody, mouse IgG2a, V domains shown, also called 6F6 parental monoclonal antibody; mouse 6F6 monoclonal antibody) VH: EVQLQQSGAELVEPGASVKLSCTGSGFNIKVYYVHWLKQLTEQGLEWIGRIDPENGETIYTPKFQDKATLTVDTSSNTAYLQLSSLTSEDAAVYYCVSSGYWGQGTTLTVSS VL: DIVMTQSAFSNPVTLGTSASISCRSSKSLLHRNGITYLYWYLQKPGQPPQLLIYQMSNLASGVPDRFTSSGSGTDFTLKISRVEAEDVGVYYCAQNLELWTFGGGTKLEIK	106000
2E11 mouse monoclonal antibody (antibody, V domains shown, Mouse hybridoma antibody) VH: EVQLQQSGAEVVKPGASVKLSCTASGFNIKVYYIHWLKQLTEQGLEWIGRIDPENGETKYVPKFQGKATLTVDTSSNTAYLHLSSLTSEDTGVYYCVTSGYWGQGTTLTVSS VL: DIVMTQAAFSNPVALGTSASISCRSSKSLLHSNGITYLYWYLQKPGQSPQLLIYQMSNLASGVPDRFSSSGSGTDFTLRISRVEAEDVGVYYCAQNLELWTFGGGTKLEIK	84500
16D4 mouse monoclonal antibody (antibody, V domains shown, Mouse hybridoma antibody) VH: EVQLQQSGAELVKPGASVKLSCTASGFNIKDYYMHWLKQLTEQGLEWIGRIDPENGETQYAPKFQGKASLTADTSSNTAYLHLSSLTSEDTAVYYCVSSGYWGQGTTLTVSS VL: DIVMTQAAFSNPVTLGTSASISCRSSKSLLHSNGITYLYWYLQKPGQSPQLLIYQMSNLASGVPDRFSSSGSGTDFTLRISRVEAEDVGVYYCAQNLELWTFGGGTKLEIK	81200

[in] Please give the documented kon of 2C1 mouse monoclonal antibody (antibody, V domains shown, Mouse hybridoma antibody) VH: EVQLQQSGAELVKPGASVKLSCTGSGFNIKVYYVHWLKQLTEQGLEWIGRIDPENGETIYAPKFQDKATLTVDTSSNTAYLQLSSLTSEDTAVYYCVSSGYWGQGTTLTVSS VL: DIVMTQSAFSNPVTLGTSASISCRSSKSLLHRNGITYLYWYLQKPGQSPQLLIYQMSNLASGVPDRFTSSGSGTDFTLKISRVEAEDVGVYYCAQNLELWTFGGGTKLEIK
[out] 66300

[in] Please give the documented kon of 5D1 mouse monoclonal antibody (antibody, V domains shown, Mouse hybridoma antibody) VH: EVQLQQSGAELVKPGASVKLSCTGSGFNIKVYYVHWLKQLTEQGLEWIGRIDPENGETKYAPKFQDKATLTVDTSSNTAYLHLSSLTSEDTAVYYCVSSGYWGQGTTLTVSS VL: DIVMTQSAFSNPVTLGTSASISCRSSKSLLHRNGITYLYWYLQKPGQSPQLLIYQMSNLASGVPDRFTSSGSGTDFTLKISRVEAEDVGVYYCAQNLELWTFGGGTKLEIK
[out] 57000

[in] Please give the documented kon of 14B3 mouse monoclonal antibody (antibody, V domains shown, Mouse hybridoma antibody) VH: EVQLQQSGAELVEPGASVKLSCTGSGFNIKVYYVHWLKQLTEQGLEWIGRIDPENGETLYTPKFQGKATFTVDTSSNTAYLQLSSLTSEDTAVYYCVSSGYWGQGTTLTVSS VL: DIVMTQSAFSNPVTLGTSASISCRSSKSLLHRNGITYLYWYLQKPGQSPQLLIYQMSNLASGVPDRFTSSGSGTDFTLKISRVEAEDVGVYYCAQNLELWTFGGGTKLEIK
[out] 74800
